- Tested on: A2780
- Test description: Antiproliferation assay (Assay 7), A2780
- Type: cell-based
- Condition summary: CellTiter-Glo, 72 hours, several values per example, listed as 04, read-out: Antiproli A2780 [M] IC50
Measured attribute: IC50 (M)
Record the value in M, omitting the unit from your answer.

Quick one: IC50 for Cc1c2c(nn1C)CN(C)S(=O)(=O)CCCn1c(C(=O)O)c(CCCOc3cccc4ccccc34)c3ccc(Cl)c-2c31 (racemic) ?
1.66e-05

* * *

Provide the recorded log10(IC50) for the entries that follow.
- Test system: SUDHL10
- Test description: Induction of cytotoxicity (Assay 6), SUDHL10
- Condition summary: read-out: Cytotox SUDHL10 [M] (median) IC50, CellTiter-Glo, 5 hours, SUDHL10
Form field - Quantity: IC50; Unit: M; Scale: log10

Quick one: log10(IC50) for Cc1c2c(nn1C)CN(C)S(=O)(=O)CCCn1c(C(=O)O)c(CCCOc3cccc4ccccc34)c3ccc(Cl)c-2c31 (single isomer, unassigned; enantiomer 2) [Example 6] ?
-4.77

Looking for the measured log10(IC50) of CCc1c2c(nn1C)C(CCN1CCOCC1)N(C)S(=O)(=O)CCCn1c(C(=O)O)c(CCCOc3cccc4cc(F)ccc34)c3ccc(Cl)c-2c31 (single isomer, unassigned; enantiomer 1) [Example 75] , can you help?
-4.80

# query: log10(IC50) of entry CCc1c2c(nn1C)C(CCC1CCOCC1)N(C)S(=O)(=O)CCCn1c(C(=O)O)c(CCCOc3cccc4cc(F)ccc34)c3ccc(Cl)c-2c31 (racemic) [Example 59]
-7.00

Request the reported log10(IC50) associated with Cc1c2c(nn1C)CN(C)S(=O)(=O)CCCn1c(C(=O)O)c(CCCOc3cccc4ccccc34)c3ccc(Cl)c-2c31 (racemic) [Example 4]
-5.92

Could you share which log10(IC50) value was measured for CCc1c2c(nn1C)C(CCC1CCOCC1)N(C)S(=O)(=O)CCCn1c(C(=O)O)c(CCCOc3cccc4cc(F)ccc34)c3ccc(Cl)c-2c31 (single isomer, unassigned; enantiomer 3) [Example 63] ?
-7.07

* * *

- Tested on: SUDHL5
- Test description: Induction of cytotoxicity (Assay 6), SUDHL5
- Condition summary: read-out: Cytotox SUDHL5 [M] (median) IC50, CellTiter-Glo, 5 hours, SUDHL5
Measured attribute: IC50 (M)
Provide only the numeric value, understood in M.

Item under review: CCc1c2c(nn1C)C(N1CCOCC1)CCN(C)S(=O)(=O)CCCn1c(C(=O)O)c(CCCOc3cccc4cc(F)ccc34)c3ccc(Cl)c-2c31 (single isomer, unassigned; enantiomer 1) [Example 70] . Reported IC50?
2.6e-06

Suppose we examine the compound Cc1c2c(nn1C)C(CCN1CCOCC1)N(C)S(=O)(=O)CCCn1c(C(=O)O)c(CCCOc3cccc4cc(F)ccc34)c3ccc(Cl)c-2c31 (single isomer, unassigned; enantiomer 1) [Example 66] ; what IC50 value has been reported?
3.3e-06

Give its IC50 value. Item: CCc1c2c(nn1C)C(CCC1CCOCC1)N(C)S(=O)(=O)CCCn1c(C(=O)O)c(CCCOc3cccc4cc(F)ccc34)c3ccc(Cl)c-2c31 (single isomer, unassigned; enantiomer 4) [Example 64]
1.2e-06

* * *

Would you mind telling me the reported IC50 of each entry?
- Test system: AMO-1
- Test description: Antiproliferation assay (Assay 7), AMO-1
- Format: cell-based
- Condition summary: CellTiter-Glo, 72 hours, several values per example, read-out: Antiproli AMO-1 [M] IC50
Lab book: enter the figure in M, no units written.

Query (molecule): Cc1c2c(nn1C)CN(C1CC1)S(=O)(=O)CCCn1c(C(=O)O)c(CCCOc3cccc4ccccc34)c3ccc(Cl)c-2c31 ; field requested: IC50
4.9e-06

Entry Cc1c2c(nn1C)C(CCN1CCOCC1)N(C)S(=O)(=O)CCCn1c(C(=O)O)c(CCCOc3cccc4ccccc34)c3cccc-2c31 (single isomer, unassigned; enantiomer 1) has what IC50?
1.5e-05

Query: IC50; subject: CCc1c2c(nn1C)CN(C)S(=O)(=O)CCCn1c(C(=O)O)c(CCCOc3cccc4cc(F)ccc34)c3ccc(Cl)c-2c31 (single isomer, unassigned; enantiomer 2)
2.8e-05

Query: IC50; subject: CCc1c2c(nn1C)CN(C)S(=O)(=O)CCCn1c(C(=O)O)c(CCCOc3cccc4ccccc34)c3ccc(F)c-2c31 (racemic)
3.9e-06

Endpoint output: IC50 of Cc1c2c(nn1C)CN(C1CC1)S(=O)(=O)CCCn1c(C(=O)O)c(CCCOc3cccc4cc(F)ccc34)c3ccc(Cl)c-2c31 (racemic) [Example 41] . Value?
8e-07

Given the molecule CCc1c2c(nn1C)C(CCN1CCOCC1)N(C)S(=O)(=O)CCCn1c(C(=O)O)c(CCCOc3cccc4cc(F)ccc34)c3ccc(Cl)c-2c31 (racemic) , what is its reported IC50?
3.9e-08

What does the data say about its IC50? Entry: CCc1c2c(nn1C)CN(CCN1CCCCC1)S(=O)(=O)CCCn1c(C(=O)O)c(CCCOc3cccc4ccccc34)c3cccc-2c31 (racemic)
1.7e-05

Recorded IC50 of CCc1c2c(nn1C)C(CCC1CCOCC1)N(C)S(=O)(=O)CCCn1c(C(=O)O)c(CCCOc3cccc4cc(F)ccc34)c3ccc(Cl)c-2c31 (single isomer, unassigned; enantiomer 4) [Example 64] , please.
1e-06

Which IC50 reading was recorded for the molecule Cc1c2c(nn1C)CN(C1CC1)S(=O)(=O)CCCn1c(C(=O)O)c(CCCOc3cccc4cc(F)ccc34)c3ccc(Cl)c-2c31 (single isomer, unassigned; enantiomer 2) [Example 43] ?
1.1e-05

# IC50 lookup, item Cc1c2c(nn1C)C(CCN1CCOCC1)N(C)S(=O)(=O)CCCn1c(C(=O)O)c(CCCOc3cccc4cc(F)ccc34)c3ccc(Cl)c-2c31 (racemic) [Example 65]
7.1e-08

* * *

- Test system: MCL1 protein (Homo sapiens (Human), UniProt Q07820)
- Sequence (Q07820 whole entry): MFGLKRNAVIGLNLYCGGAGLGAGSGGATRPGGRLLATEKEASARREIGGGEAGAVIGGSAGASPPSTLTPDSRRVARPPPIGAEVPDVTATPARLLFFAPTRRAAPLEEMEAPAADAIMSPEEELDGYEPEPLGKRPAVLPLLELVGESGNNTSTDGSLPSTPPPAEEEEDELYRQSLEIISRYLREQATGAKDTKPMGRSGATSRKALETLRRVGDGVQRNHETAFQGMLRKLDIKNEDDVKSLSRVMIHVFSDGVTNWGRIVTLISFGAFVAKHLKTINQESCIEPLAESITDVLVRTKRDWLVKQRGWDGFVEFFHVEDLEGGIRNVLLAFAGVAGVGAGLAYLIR
- Test description: PIxEL: protein-protein interaction in permeabilized cells by ELISA (Assay 5)
- Assay type: cell-based
- Condition summary: permeabilized RKO cells, Biotin-BIM peptide 0.2 μM, serum free; median
Exercise: state measured IC50 for each of the molecules provided.
Numeric answer only, unit µM assumed.

What measured IC50 goes with Cc1c2c(nn1C)CN(C)S(=O)(=O)CCCn1c(C(=O)O)c(CCCOc3cccc4cc(F)ccc34)c3ccc(F)c-2c31 (single isomer, unassigned; enantiomer 2) ?
0.506

Tell me the measured IC50 of Cc1c2c(nn1C)CN(C)S(=O)(=O)CCCn1c(C(=O)O)c(CCCOc3cccc4ccccc34)c3ccc(Cl)c-2c31 (single isomer, unassigned; enantiomer 1) , please.
0.57

Any idea what IC50 was measured for CCc1c2c(nn1C)C(CCN1CCOCC1)N(C)S(=O)(=O)CCCn1c(C(=O)O)c(CCCOc3cccc4cc(F)ccc34)c3ccc(Cl)c-2c31 (racemic) ?
0.0331

Recorded IC50 of Cc1c2c(nn1C)CN(C1CC1)S(=O)(=O)CCCn1c(C(=O)O)c(CCCOc3cccc4cc(F)ccc34)c3ccc(Cl)c-2c31 (single isomer, unassigned; enantiomer 1) , please.
0.157

Please look up its IC50: CCc1c2c(nn1C)CN(CC)S(=O)(=O)CCCn1c(C(=O)O)c(CCCOc3cccc4cc(F)ccc34)c3ccc(Cl)c-2c31 (single isomer, unassigned; enantiomer 1) [Example 57]
0.0748

IC50 for CCc1c2c(nn1C)CN(C)S(=O)(=O)CCCn1c(C(=O)O)c(CCCOc3cccc4cc(F)ccc34)c3ccc(F)c-2c31 (single isomer, unassigned; enantiomer 1) ?
0.552

Requested field: IC50. Item: CCc1c2c(nn1C)CN(C1CC1)S(=O)(=O)CCCn1c(C(=O)O)c(CCCOc3cccc4cc(F)ccc34)c3ccc(Cl)c-2c31 (single isomer, unassigned; enantiomer 1) [Example 54]
0.36

Fill in: IC50 of Cc1c2c(nn1C)CNS(=O)(=O)CCCn1c(C(=O)O)c(CCCOc3cccc4cc(F)ccc34)c3ccc(Cl)c-2c31 (single isomer, unassigned; enantiomer 1) is ___
0.458

Give the measured IC50 of Cc1c2c(nn1C)C(CCN1CCOCC1)N(C)S(=O)(=O)CCCn1c(C(=O)O)c(CCCOc3cccc4ccccc34)c3cccc-2c31 (single isomer, unassigned; enantiomer 2) .
0.201

// IC50 lookup, key: CCc1c2c(nn1C)CN(CC)S(=O)(=O)CCCn1c(C(=O)O)c(CCCOc3cccc4cc(F)ccc34)c3ccc(Cl)c-2c31 (racemic) [Example 56]
0.145

* * *

- Test system: MV-4-11
- Test description: Antiproliferation assay (Assay 7), MV-4-11
- Format: cell-based
- Condition summary: CellTiter-Glo, 72 hours, several values per example, listed as 08, read-out: Antiproli MV-4-11 [M] IC50
Measured attribute: IC50 (M)
# number only, unit M dropped from output

# query: IC50 of entry CCc1c2c(nn1C)CN(C)S(=O)(=O)CCCn1c(C(=O)O)c(CCCOc3cccc4cc(F)ccc34)c3ccc(F)c-2c31 (single isomer, unassigned; enantiomer 1)
1.18e-06
